# maps each entry to its inhibition at 10 µM
- Test system: IL-1α
- EXPERIMENT_SUMMARY: Inhibition of IL-1 production by stimulated human peripheral blood leukocytes in vitro
- Assay type: cell-based
- CONDITIONS_USED: Homo sapiens, Leukocyte, 10 μM; PMA-stimulated PBL; read-out: Percentage of inhibition of IL-1α production
Form entry: enter the amount, then its unit.

COMPOUND: CC[C@H]1OC(=O)[C@H](C)[C@@H](O[C@H]2C[C@@](C)(OC)[C@@H](O)[C@H](C)O2)[C@H](C)[C@@H](O[C@@H]2O[C@H](C)C[C@H](N(C)C)[C@H]2O)[C@](C)(O)C[C@@H](C)CN(C)[C@H](C)[C@@H](O)[C@]1(C)O [azithromycin, reference compound]
PROPERTY_MEASURED: inhibition at 10 µM
OBS_VALUE: 0%
--
COMPOUND: CC[C@H]1OC(=O)[C@H](C)[C@@H](O[C@H]2C[C@@](C)(OC)[C@@H](OC(=O)CCN(CC)CC)[C@H](C)O2)[C@H](C)[C@@H](O[C@@H]2O[C@H](C)C[C@H](N(C)C)[C@H]2O)[C@](C)(OC)C[C@@H](C)C(=O)[C@H](C)[C@H]2N(C)C(=O)O[C@]12C
PROPERTY_MEASURED: inhibition at 10 µM
OBS_VALUE: 30%
--
COMPOUND: CC[C@H]1OC(=O)[C@H](C)[C@@H](O[C@H]2C[C@@](C)(OC)[C@@H](OC(=O)CCN(CC)CC)[C@H](C)O2)[C@H](C)[C@@H](O[C@@H]2O[C@H](C)C[C@H](NC)[C@H]2O)[C@](C)(OC)C[C@@H](C)C(=O)N[C@H](C)[C@@H](O)[C@]1(C)O
PROPERTY_MEASURED: inhibition at 10 µM
OBS_VALUE: 62%

Give the reported inhibition at 10 µM for CC[C@H]1OC(=O)[C@H](C)[C@@H](O[C@H]2C[C@@](C)(OC)[C@@H](OC(=O)CCN(CC)CC)[C@H](C)O2)[C@H](C)[C@@H](O[C@@H]2O[C@H](C)C[C@H](N(C)C)[C@H]2O)[C@](C)(O)C[C@@H](C)CN(C)[C@H](C)[C@H]2OC(=O)O[C@@]21C (system: IL-1α).
0%

Give the reported inhibition at 10 µM for CC[C@H]1OC(=O)[C@H](C)[C@@H](O[C@H]2C[C@@](C)(OC)[C@@H](OC(=O)CCN3CC(C)CC(C)C3)[C@H](C)O2)[C@H](C)[C@@H](O[C@@H]2O[C@H](C)C[C@H](N(C)C)[C@H]2O)[C@](C)(OC)C[C@@H](C)C(=O)N[C@H](C)[C@@H](O)[C@]1(C)O (stereo partly shown) (system: IL-1α).
14%

Give the reported inhibition at 10 µM for CC[C@H]1OC(=O)[C@H](C)[C@@H](O[C@H]2C[C@@](C)(OC)[C@@H](OC(=O)CCN3CCCCCC3)[C@H](C)O2)[C@H](C)[C@@H](O[C@@H]2O[C@H](C)C[C@H](N(C)C)[C@H]2O)[C@](C)(OC)C[C@@H](C)C(=O)N[C@H](C)[C@@H](O)[C@]1(C)O (system: IL-1α).
52%

Give the reported inhibition at 10 µM for CC[C@H]1OC(=O)[C@H](C)[C@@H](O[C@H]2C[C@@](C)(OC)[C@@H](OC(=O)CCN(C)CCN(CC)CC)[C@H](C)O2)[C@H](C)[C@@H](O[C@@H]2O[C@H](C)C[C@H](N(C)C)[C@H]2O)[C@](C)(OC)C[C@@H](C)C(=O)N[C@H](C)[C@@H](O)[C@]1(C)O (system: IL-1α).
31%

Give the reported inhibition at 10 µM for CC[C@H]1OC(=O)[C@H](C)[C@@H](O[C@H]2C[C@@](C)(OC)[C@@H](OC(=O)CCN3CCN(CCCN4CCCCC4)CC3)[C@H](C)O2)[C@H](C)[C@@H](O[C@@H]2O[C@H](C)C[C@H](N(C)C)[C@H]2O)[C@](C)(OC)C[C@@H](C)C(=O)N[C@H](C)[C@@H](O)[C@]1(C)O (system: IL-1α).
14%

Give the reported inhibition at 10 µM for CC[C@H]1OC(=O)[C@H](C)[C@@H](O[C@H]2C[C@@](C)(OC)[C@@H](OC(=O)CCN3CCN(CCN(C)C)CC3)[C@H](C)O2)[C@H](C)[C@@H](O[C@@H]2O[C@H](C)C[C@H](N(C)C)[C@H]2O)[C@](C)(OC)C[C@@H](C)C(=O)N[C@H](C)[C@@H](O)[C@]1(C)O (system: IL-1α).
55%

Give the reported inhibition at 10 µM for CC[C@H]1OC(=O)[C@H](C)[C@@H](O[C@H]2C[C@@](C)(OC)[C@@H](OC(=O)CCN(CC)CC)[C@H](C)O2)[C@H](C)[C@@H](O[C@@H]2O[C@H](C)C[C@H](N(C)C)[C@H]2O)[C@](C)(OC)C[C@@H](C)C(=O)[C@H](C)[C@H]2NC(=O)O[C@@]21C (system: IL-1α).
69%

Give the reported inhibition at 10 µM for CC[C@H]1OC(=O)[C@H](C)[C@@H](O[C@H]2C[C@@](C)(OC)[C@@H](OC(=O)CCN3CCN(CCOCCO)CC3)[C@H](C)O2)[C@H](C)[C@@H](O[C@@H]2O[C@H](C)C[C@H](N(C)C)[C@H]2O)[C@](C)(OC)C[C@@H](C)C(=O)N[C@H](C)[C@@H](O)[C@]1(C)O (system: IL-1α).
34%

Give the reported inhibition at 10 µM for CC[C@H]1OC(=O)[C@H](C)[C@@H](O[C@H]2C[C@@](C)(OC)[C@@H](OC(=O)CCN(C)CCO)[C@H](C)O2)[C@H](C)[C@@H](O[C@@H]2O[C@H](C)C[C@H](N(C)C)[C@H]2O)[C@](C)(OC)C[C@@H](C)C(=O)N[C@H](C)[C@@H](O)[C@]1(C)O (system: IL-1α).
80%

Give the reported inhibition at 10 µM for CC[C@H]1OC(=O)[C@H](C)[C@@H](O[C@H]2C[C@@](C)(OC)[C@@H](OC(=O)CCN(CC)CC)[C@H](C)O2)[C@H](C)[C@@H](O[C@@H]2O[C@H](C)C[C@H](N(C)C)[C@H]2O)[C@](C)(OC)C[C@@H](C)NC(=O)[C@H](C)[C@@H](O)[C@]1(C)O (system: IL-1α).
73%
